target: Env of HIV-1 strain REJO4541.67 (HIV-1); test: cell-based or functional assay

{"binder": "γ52κ61 (antibody, V domains shown) VH: QIHLVQSGTEVKKPGSSVTVSCKAYGVNTFGLYAVNWVRQAPGQSLEYIGQIWRWKSSASHHFRGRVLISAVDLTGSSPPISSLEIKNLTSDDTAVYFCTTTSTYDRWSGLHHDGVMAFSSWGQGTLISVSA VL: DIQMTQSPSTLSASIGDTVRISCRASQSITGNWVAWYHQRPGKAPRLLIYRGAALLGGVPSRFSGSAAGTDFTLTIGNLQAEDFGTFYCQQYDTYPGTFGQGTKVEVKR", "comparison symbol": "=", "neutralization IC50, µg/mL": 0.115}
{"binder": "γ52κ11 (antibody, V domains shown) VH: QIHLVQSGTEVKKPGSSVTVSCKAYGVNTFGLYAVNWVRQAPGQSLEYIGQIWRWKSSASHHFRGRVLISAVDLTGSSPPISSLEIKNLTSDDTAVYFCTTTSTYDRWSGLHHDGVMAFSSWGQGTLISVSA VL: DIQMTQSPSTLSASVGGTVRISCRASQSITGGWLAWYHQRPGKAPRLLIYRGSRLLGGVPSRFSGSAAGTDFTLTIANLQAEDFGTFYCQQYDTYPGTFGQGTKVEVKR", "comparison symbol": "=", "neutralization IC50, µg/mL": 3.47}
{"binder": "γ44κ11 (antibody, V domains shown) VH: QIHLVQSGTEVKKPGSSVTVSCKAYEVNTFGLYAVNWVRQAPGQSLEYIGQIWRWKSSASHHFRGRVLISAVDLTGSSPPISSLEIKNVTSDDTAVYFCTTTSTHDKWSGLHHDGVMAFSSWGQGTLISVSA VL: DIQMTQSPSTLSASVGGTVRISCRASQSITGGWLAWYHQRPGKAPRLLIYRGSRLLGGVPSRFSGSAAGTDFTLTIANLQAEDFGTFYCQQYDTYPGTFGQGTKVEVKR", "comparison symbol": ">", "neutralization IC50, µg/mL": 15}
{"binder": "γ59κ61 (antibody, V domains shown) VH: QIHLVQSGTEVKKPGSSVTVSCKAYGVNTFGLYAVNWVRQAPGQGLEYIGQIWRWKSSASHHFRGRVLISAVDLTGSSPPISSLEIKNVTSDDTAVYFCTTTSTYDEWSDLHHDGVMAFSSWGQGTLISVSA VL: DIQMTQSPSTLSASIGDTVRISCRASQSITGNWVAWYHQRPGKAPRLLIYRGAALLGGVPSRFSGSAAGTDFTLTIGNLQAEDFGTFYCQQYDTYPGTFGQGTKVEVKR", "comparison symbol": "=", "neutralization IC50, µg/mL": 1.33}
{"binder": "γ20κ3 (antibody, V domains shown) VH: QIHLVQSGTEVKKPGSSVAVSCKAYGVNTFGLYAVNWVRQAPGQSLEYIGQIWRWKSSASHDFRGRVIISAVDLTGSSPPISSLEIKNLTSDDTAVYFCTATSTPDYWSGLHHDGVMAFSSWGQGTLISVSA VL: DIQMTQSPSTLSASIGDTVRISCRASQSITGNWLAWYHQRPGKAPRLLIYRGSRLLGGVPSRFSGSAAGTDFTLTIANLQAEDFGTFYCQQYDTYPGTFGQGTKVEVKR", "comparison symbol": ">", "neutralization IC50, µg/mL": 15}
